Task for the reader: assign each of the following compounds its reported pest or weed control at 0.25 %.
Tested on: larvae
Protocol Text: larvicidal activity assay
Assay type: in vivo
Test Context: 0.25% compound, 24 hour exposure, dead larvae / total larvae; read-out: % Lethality with 0.25% compound conc.
Counter-ions that a name gives are not always drawn.
Numbers only, in %.

CCc1ncc(C)nc1CC    100

List pest or weed control at 0.25 % for every entry below, keeping the order given.
1. CC/C=C\CCCCO [OLI0084, cis-5-octen-1-ol]
2. O=COCC=Cc1ccccc1 [OLI0107, cinnamyl formate]
3. CC(=O)c1ccco1
4. CCC(=O)OCCC(C)C [OLI0099, isoamyl propionate]
5. C=CCOC(=O)CCC [OLI0019, allyl butyrate]

100
100
100
0
100

Fill in pest or weed control at 0.25 % for each of the 7 compounds listed.
1. Cc1nccnc1C
2. O=C(C=Cc1ccccc1)OCCc1ccccc1 [OLI0103, phenethyl cinnamate]
3. Cc1cnc(C)c(C)n1
4. COc1nccnc1C
5. CCOC(=O)c1ccco1 [OLI0009, ethyl 2-furoate]
6. CCc1nccnc1C
7. CC/C=C/CC(=O)OC [OLI0100, methyl (E)-hex-3-enoate]

[0, 0, 21, 100, 100, 100, 100]

The values you see were collected from patent US20150216182A1.
